system_under_test: N‐terminal PAS domain from XC_2579 (Tk 4, residues 1 to 165) (Xanthomonas campestris pv. campestris)
Sequence (Q8PA41 14-178): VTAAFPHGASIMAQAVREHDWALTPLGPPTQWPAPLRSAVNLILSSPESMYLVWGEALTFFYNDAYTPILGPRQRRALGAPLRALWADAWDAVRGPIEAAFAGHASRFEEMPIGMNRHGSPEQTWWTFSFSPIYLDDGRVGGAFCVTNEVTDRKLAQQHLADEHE
measurement_protocol: Isothermal titration calorimetry of DSF and structural analogues binding to Tk 4
condition_description: Kd, ITC, Tk 4, PBS buffer at 25°C
property_label: Kd (µM)
API: value field is a number in µM; no unit string.

For record CCCCCCCCC/C=C\C(=O)O [cis‐2‐dodecenoic acid (BDSF), cis‐2‐dodecenoic acid] the listed Kd is 7
